Molecular target: PDE6D (phosphodiesterase 6 delta), wild type, polyhistidine tag removed (UniProt O43924 1-150)
Experiment: FP; + compound-1, average of 3 replicates
*: point of attachment. Farnesyl = CC(C)=CCC/C(C)=C/CC/C(C)=C/C*
Experimental readout: Kd

Data point: {FAM}-KKKKKKSKTKC(Farnesyl)-OMe [fluorescein-labeled KRAS HVR peptide, FAM-KKKKKKSKTKC(OMe)-Far] ; Kd = 1300 nM
